These entries and their values trace back to PubChem BioAssay (EPA / NIEHS).

experiment: ATG_BRE_CIS: Attagene CIS-FACTORIAL HepG2 Assay for human Bone Morphogenetic Protein (BMP) Response Element (BRE) (AID 2282933); details: HepG2 BMP response element reporter, Attagene transcription factor profiling; actives raise or lower the signal
Calls of active or inactive are those of the source. Rule for the calls: active = hit-call score of the fitted dose curve at least 0.9, where 1 is the maximum; inactive = score below 0.9.
Choose the fitting class; nothing outside active, inactive is accepted.

compound	classification
NC(=O)O	inactive
O=C(Nc1ccc2[nH]ccc2c1)c1cc2cc(F)ccc2n1Cc1cccc(F)c1	inactive
O=[N+]([O-])c1ccc(O)c([N+](=O)[O-])c1	inactive
COc1ccccc1OC	inactive
CC(=[OH+])/C=C(/C)[O-].CC(=[OH+])/C=C(/C)[O-].CC(=[OH+])/C=C(/C)[O-].[Al]	inactive

**Query** Please state the recorded outcome for this compound: "Cl/C=C\C[N+]12CN3CN(CN(C3)C1)C2"
**Result** active

**Query** Recorded test outcome, item CC(Br)C(=O)O (centres undefined)
**Result** inactive

**Query** Hi, sorry to bother you, what did the test record for "O=c1[nH]c(=O)[nH]c(=O)[nH]1" ?
**Result** inactive

**Query** Hello, I am checking results. What call was entered for "Cc1ccccc1C(=O)Nc1cccc(OC(C)C)c1" ?
**Result** inactive

**Query** For CCC(C)c1cccc(C(C)CC)c1O (centres undefined) , what call appears in the results of this test?
**Result** inactive

**Query** Answer briefly: the call reported for CC(=O)OC(c1ccccc1)C(Cl)(Cl)Cl (centres undefined) in this assay.
**Result** inactive

**Query** Check the results log: what was the call for "Nc1cccc(Cl)c1" ?
**Result** inactive

**Query** Recorded test call requested for "Cl/C=C/Cl"
**Result** inactive

**Query** Kindly provide the recorded test outcome for the following compound: "COC[C@H](C)N(C(=O)CCl)c1c(C)csc1C"
**Result** inactive

###

Assay: APR_HepG2_NuclearSize_24hr: Apredica 24-hour HepG2 Assay for Nuclear Size (AID 2282907)
Conditions: high-content imaging, actives raise or lower the signal
Method: APR_HepG2_24hr is a cell-based, multiplexed-readout assay that uses HepG2, a human liver cell line, with measurements taken at 24 hours after chemical dosing in a 384-well plate.APR_HepG2_NuclearSize_24hr is one of 10 assay component(s) measured or calculated from the APR_HepG2_24hr assay. […] This assay endpoint, APR_HepG2_NuclearSize_24hr, was analyzed with bidirectional fitting relative to DMSO as the negative control and baseline of activity. […]
Calls of active or inactive are those of the source. The calls were made as follows: active = hit-call score of the fitted dose curve at least 0.9, where 1 is the maximum; inactive = score below 0.9.
// classify into T (active), F (inactive)

compound	classification
Oc1cccc2cccnc12	F
CC(C)(OO)c1ccccc1	T
CN(C)N=O	F

**Query** Could you please tell me the result logged for "CCN1CCC2(CC1)COc1cc3c(cc12)N(C(=O)c1ccc(-c2ccc(-c4nnc(C)o4)cc2C)cc1)CC3" in this assay?
**Result** F

**Query** Look up the recorded call for "COc1cc(-c2ccc(N)c(OC)c2)ccc1N" in this test.
**Result** F

**Query** What did the test return for CC12CC1(C)C(=O)N(c1cc(Cl)cc(Cl)c1)C2=O (configuration not stated) ?
**Result** F

**Query** What is the recorded call for this compound in the test? "Cn1sc(Cl)cc1=O"
**Result** F
